MEASUREMENT TARGET: human EHMT2 913-1193 (Homo sapiens, UniProt Q96KQ7)
Construct: recombinant purified human EHMT2 913-1193, Viva; purchased Viva
TEST SUMMARY: EHMT2 enzyme assay on histone peptide substrate (EHMT2 PEP)
Type: biochemical
CONDITION CONTEXT: Table II; read-out: EHMT2 PEP (IC50 μM)
Entries and their measured IC50 follow.

{"columns": ["COMPOUND SMILES", "MEASUREMENT TARGET", "RESULT"],
 "data": [
  ["COc1ccc(Nc2nccc(N3CCc4nc[nH]c(=O)c4C3)n2)cc1OCCCN1CCCC1", "human EHMT2 913-1193 (Homo sapiens, UniProt Q96KQ7)", "> 10 µM"],
  ["CC(=O)N1CCC(CNc2nccc(NCCNC(=O)c3ccc4c(c3)CC(=O)N4)n2)CC1", "human EHMT2 913-1193 (Homo sapiens, UniProt Q96KQ7)", "> 10 µM"],
  ["CCCCNc1nccc(NCC2CCNCC2)n1", "human EHMT2 913-1193 (Homo sapiens, UniProt Q96KQ7)", "1 to 10 µM"],
  ["CCCCNc1nccc(NC2CCN(C(C)=O)CC2)n1", "human EHMT2 913-1193 (Homo sapiens, UniProt Q96KQ7)", "> 10 µM"],
  ["COc1cnc(Nc2cc(CNC3CCOCC3)ccn2)cc1OCCCN1CCCC1", "human EHMT2 913-1193 (Homo sapiens, UniProt Q96KQ7)", "1 to 10 µM"],
  ["COc1ccc(Nc2cccc3nn(C)cc23)cc1OCCCN1CCCC1", "human EHMT2 913-1193 (Homo sapiens, UniProt Q96KQ7)", "> 10 µM"],
  ["COc1ccc(Nc2nccc(N3Cc4cn[nH]c4C3)n2)cc1OCCCN1CCCC1", "human EHMT2 913-1193 (Homo sapiens, UniProt Q96KQ7)", "1 to 10 µM"],
  ["COc1ccc(Nc2ccc3cnn(C)c3c2)cc1OCCCN1CCCC1", "human EHMT2 913-1193 (Homo sapiens, UniProt Q96KQ7)", "> 10 µM"],
  ["COc1ccc(Nc2nccc(NCC3CCN(C(C)=O)CC3)n2)cc1OCCCN1CC[C@@H](F)C1", "human EHMT2 913-1193 (Homo sapiens, UniProt Q96KQ7)", "0.1 to 1 µM"],
  ["COc1ccc(Nc2ccc3nn(C)cc3c2)cc1OCCCN1CCCC1", "human EHMT2 913-1193 (Homo sapiens, UniProt Q96KQ7)", "> 10 µM"]
]}

Notebook: COc1ccc(Nc2nccc(NC3CCOCC3)n2)cc1OCCCN1CCCC1 , IC50 read as 0.1 to 1 µM

Lab note: O=C(NCCNc1ccnc(NCC2CCNCC2)n1)c1cccc(N2CCCC2)c1 gave IC50 of > 10 µM

# IC50 (compound: COc1ccc(Nc2nccc(N3CCC(C(C)(C)O)CC3)n2)cc1OCCCN1CCCC1 ) is 1 to 10 µM

Recorded IC50 (compound COc1ccc(Nc2cccc3cn(C)nc23)cc1OCCCN1CCCC1 ): > 10 µM

// COc1ccc(Nc2ncc(CO)cn2)cc1OCCCN1CCCC1 : IC50 value = > 10 µM

O=C(NCCNc1ccnc(NCC2CCNCC2)n1)c1ccc2c(c1)OC(F)(F)O2 yielded IC50 of > 10 µM

# IC50 of COCCCN(C)c1ccnc(Nc2ccc(OC)c(OCCCN3CCCC3)c2)n1 = 1 to 10 µM

Short answer for COc1ccc(Nc2nccc(N3CCCC3)n2)cc1OCCCN1CCCC1 : IC50 was 1 to 10 µM

----------
MEASUREMENT TARGET: human EHMT2 913-1193 (Homo sapiens)
Construct: recombinant purified human EHMT2 913-1193, Viva; purchased Viva
TEST SUMMARY: EHMT2 enzyme assay on histone peptide substrate (EHMT2 PEP)
Format: biochemical
CONDITION CONTEXT: Table II; read-out: EHMT2 PEP (IC50 μM)
PROPERTY LABEL: IC50

Below are worked cases with known answers.
{"columns": ["COMPOUND", "RESULT"],
 "data": [
  ["CCCCNc1nccc(NC2CCC(N)CC2)n1 (stereo not drawn)", "> 10 µM"],
  ["COc1ccc(Nc2nccc(NCC3CCNCC3)n2)cc1OCCCN1CCCC1Cc1ccccc1 (stereo not drawn)", "1 to 10 µM"],
  ["COc1ccc(Nc2ncc(NC(C)=O)cn2)cc1OCCCN1CCCC1", "> 10 µM"],
  ["COc1ccc(Nc2ncc3ncn(C)c3n2)cc1OCCCN1CCCC1", "> 10 µM"],
  ["COc1ccc(Nc2cc(OCC3CCN(C(C)=O)CC3)ccn2)cc1OCCCN1CCCC1", "1 to 10 µM"]
]}

Reported IC50 of COc1ccc(Nc2nccc(N3CCN(S(C)(=O)=O)CC3)n2)cc1OCCCN1CCCC1 : > 10 µM

// IC50 lookup, compound = COc1ccc(Nc2nccc(CNC3CCOCC3)n2)cc1OCCCNc1ccccc1 , result: > 10 µM

Consider COc1ccc(Nc2cc(NCC3CCNCC3)ncn2)cc1OCCCN1CCCC1 . Its measured IC50 is 1 to 10 µM

Just so you know, measured IC50 for O=C(NCCNc1ccnc(NCC2CCNCC2)n1)c1ccc(N2CCCC2)cc1 came out at > 10 µM

----------
Entries and their IC50
MEASUREMENT TARGET: human EHMT2 913-1193 (Homo sapiens, UniProt Q96KQ7)
Construct: recombinant purified human EHMT2 913-1193, Viva; purchased Viva
Sequence (Q96KQ7 913-1193): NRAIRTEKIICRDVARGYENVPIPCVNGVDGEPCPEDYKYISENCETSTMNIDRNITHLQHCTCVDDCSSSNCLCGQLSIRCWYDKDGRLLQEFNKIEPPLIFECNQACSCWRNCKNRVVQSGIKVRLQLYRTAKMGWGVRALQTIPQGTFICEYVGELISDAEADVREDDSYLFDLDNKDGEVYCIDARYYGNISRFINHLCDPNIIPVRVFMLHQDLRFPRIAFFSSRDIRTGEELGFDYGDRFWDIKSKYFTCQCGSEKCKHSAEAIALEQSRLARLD
TEST SUMMARY: EHMT2 enzyme assay on histone peptide substrate (EHMT2 PEP)
Assay type: biochemical
CONDITION CONTEXT: Table II; read-out: EHMT2 PEP (IC50 μM)
Method: Recombinant purified human EHMT2 913-1193 (55 μM) synthesized by Viva was used for all experiments. Biotinylated histone peptides were synthesized by Biopeptide and HPLC-purified to >95% purity. […] 384-well Flashplates and 96-well filter binding plates were read on a TopCount microplate reader (PerkinElmer). […]

{"columns": ["COMPOUND", "IC50"],
 "data": [
  ["COc1ccccc1CNc1ccnc(Nc2ccc(OC)c(OCCCN3CCCC3)c2)n1 [Compound 36]", "< 0.1 µM"],
  ["O=C(NCCNc1ccnc(NCC2CCNCC2)n1)c1ccc2[nH]c(=O)oc2c1 [Compound 95]", "> 10 µM"],
  ["COc1ccc(Nc2nccc(NCC3CCN(C(C)=O)CC3)n2)cc1COCCN1CC(F)C1 [Compound 57]", "1 to 10 µM"],
  ["CCCCNc1nccc(NCCCN(C)C)n1 [Compound 76]", "> 10 µM"],
  ["CNc1ccnc(Nc2ccc(OC)c(OCCN3CCOCC3)c2)n1 [Compound 237]", "1 to 10 µM"],
  ["COc1ccc(Nc2nccc(NCCc3ccncc3)n2)cc1OCCCN1CCCC1 [Compound 39]", "< 0.1 µM"],
  ["COc1ccc(CNc2ccnc(Nc3ccc(OC)c(OCCCN4CCCC4)c3)n2)cc1 [Compound 28]", "< 0.1 µM"],
  ["CCCCNc1nccc(NCC2CCN(C(C)=O)CC2)n1 [Compound 66]", "> 10 µM"],
  ["CCCCNc1nc(C)cc(NCC2CCNCC2)n1 [Compound 86]", "1 to 10 µM"],
  ["COc1ccc(Nc2nccc(N3CCc4ncncc4C3)n2)cc1OCCCN1CCCC1 [Compound 156]", "1 to 10 µM"]
]}

Briefly, IC50 measured for COc1ccc(Nc2nccc(NCc3ccc4[nH]ncc4c3)n2)cc1OCCCN1CCCC1 [Compound 164] : > 10 µM

Data point: COc1ccc(Nc2nccc(NCCOc3ccccc3)n2)cc1OCCCN1CCCC1 [Compound 40] ; IC50 = 0.1 to 1 µM

Lab book: IC50 of COc1ccc(Nc2ccnc(OCC3CCN(C(C)=O)CC3)c2)cc1OCCCN1CCCC1 [Compound 157] noted as 1 to 10 µM

Summary for this compound, COc1ccc(Nc2nccc(NCc3ccccc3)n2)cc1OCCCN1CCCC1 [Compound 21] : IC50 is < 0.1 µM

IC50 recorded for this compound, COc1ccc(Nc2nccc(N3CCOCC3)n2)cc1OCCCN1CCCC1 [Compound 102] , is > 10 µM

The compound listed as COc1ccc(Nc2nccc(NCC3CCN(C(C)=O)CC3)n2)cc1OCCCNc1ccccc1 [Compound 160] shows IC50 equal to > 10 µM

Recorded result, CNc1ccnc(Nc2ccc(OC)c(OCCCN3CCCC3)c2)c1 [Compound 209] , IC50: 0.1 to 1 µM

Sure, the documented IC50 for COc1ccc(Nc2nccc(NCC3CCN(C(C)=O)CC3)n2)cc1OCCCN1CCCC1 [Compound 47] is < 0.1 µM

// recorded IC50 for CNc1cc(C)nc(Nc2ccc(F)c(OCCCN3CCCC3)c2)n1 [Compound 232] : > 10 µM
